Documented protein stability index across a set of sequences
# System: Saccharomyces cerevisiae;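 also: PSI is a weighted mean of sequencing reads over stability bins, variants kept only with over 10 reads, mCherry proximal and sfGFP distal, peptide attached via GGGS linker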
# Protocol summary: protein stability index of tFT-peptide fusion (C-terminal peptide) (PSI (0-1 scale)); higher = more stable (slower turnover)
# Experimental parameters: genetic background: wild type; temperature: 37 C
Response field accepts a number only; no unit should be typed.

Below, each entry is followed by its recorded protein stability index result.
RRRGIYARASVV | 0.434
VFVGWVLCVVGG | 0.238
FCCWCVCFGYSG | 0.549
SRLVIGRWSVLV | 0.442
LVFGFSLILRVG | 0.234
SLGHIGFWRFAG | 0.169

// protein stability index lookup, sequence = GTLVFTYLVLRC , result: 0.229

In plain terms, LRLLSLIPPLSC has a documented protein stability index of 0.52

// sample WSMSSPPLLLAS , its protein stability index was 0.349

Lab note: measured protein stability index of HPLYWRCVVVLN was 0.0862

Recorded result, VVFFFKFFLLRL , protein stability index: 0.325

Reported protein stability index of HVSVIRRGICCA : 0.367

For this sequence ( SLSPVFVAVWFL ), measured protein stability index is 0.474

Noted for CGVWVVVASAYR : its protein stability index reads 0.508

Value of protein stability index reported for the sequence KAEKNSKKTSTE is 0.702

Sample SVLLVFRFFWEL ; protein stability index observed: 0.445

# sequence VGVVLWWVVLMV ; its protein stability index = 0.251

Given item SCLSLALLVFFG , the value recorded as its protein stability index is 0.515

The sequence listed as MALAVRVVYCGA has a reported protein stability index of 0.415

Noted for PATPPLRFPPSA : its protein stability index reads 0.707

Item: VFGFLVFYVCVR | protein stability index: 0.248

The recorded protein stability index for entry SSMSAVFRLQVC equals 0.299

DIGCLWSKTRLC has a reported protein stability index of 0.604

Kindly note the recorded protein stability index for WCAGCLGWWLQS , which is 0.548

Recorded result, PVWLSFHFFLCA , protein stability index: 0.469

Record LPLQPPPPVCLP . Reported protein stability index: 0.69

Reported protein stability index ( CGLYNQFCLFLY ) = 0.37

Record FFLFLVCLFFFS . Reported protein stability index: 0.433
